# TGT: rat nerve growth factor (beta-NGF) (rat, UniProt P25427 122-241)
# Sequence (P25427 122-241): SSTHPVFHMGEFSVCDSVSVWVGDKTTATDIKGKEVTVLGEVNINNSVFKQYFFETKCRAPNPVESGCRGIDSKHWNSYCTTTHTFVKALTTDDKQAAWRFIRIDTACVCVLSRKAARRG
# MEASUREMENT_DESCRIPTION: cell-based or functional assay
Please provide measured IC50, FLIPR calcium mobilisation for the entries that follow.
Only the number, expressed in nM, is required.

Record 1147D2 human IgG4 (antibody, V domains shown) VH: EVQLVQSGAEVKKPGSSVRISCKASGGTFSTYGVSWVRQAPGQGLEWIGGIIPIFDTGNSAQSFQGRVTITADESTSTAYMEVSSLRSDDTAVYYCASSSRIYDLNPSLTAYYDMDVWGQGTMVTVSS VL: QAVLTQPSSVSTPPGQKVTISCSGSSSNIGNNYVSWYQQLPGTAPKLLIYDNNKRPSGVPDRFSGSKSGTSATLGITGLQTGDEADYYCGTWDSSLSAWVFGGGTKLTVL . Reported IC50, FLIPR calcium mobilisation: 0.21

Record 1145D1 human IgG4 (antibody, V domains shown) VH: EVQLVQSGAEVKKPGSSVKVSCKASGGTFSTYGISWVRQAPGQGLEWIGGIIPIFDTSNSAQSFQGRVTITADESTSTAYMEVSSLRSDDTAVYYCASSSRIYDFRTLYSTYYDMDVWGQGTMVTVSS VL: QAVLTQPSSVSTPPGQKVTISCSGSSSNIGNNYVSWYQQLPGTAPKLLIYDNNKRPSGISDRFSGSKSGTSATLGIAGLQTGDEADYYCGTWDSSLSAWVFGGGTKLTVL . Reported IC50, FLIPR calcium mobilisation: 0.17

Record 1132A9 human IgG4 (antibody, V domains shown) VH: EVQLVQSGAEVKKPGSSVKVSCKASGGTFSTYGISWVRQAPGQGLEWIGGIIPIFGTGNSAQSFQGRVTITADESTSTAYMEVSSLRSDDTAVYYCASSSRIYDFEPSLIYYYDMDVWGQGTMVTVSS VL: QAVLTQPSSVSTPPGQKVTISCSGSSSNIGNNYVSWYQQLPGTAPKLLIYDNNKRPSGIPDRFSGSKSGTSATLGITGLQTGDEADYYCGTWDSSLSAWVFGGGTKLTVL . Reported IC50, FLIPR calcium mobilisation: 0.25

Record G1152H5 human IgG4 (antibody, V domains shown, tested as whole human IgG4; also called germlined 1152H5) VH: QVQLVQSGAEVKKPGSSVKVSCKASGGTFSTYGISWVRQAPGQGLEWMGGIIPIFDTGNSAQSFQGRVTITADESTSTAYMELSSLRSEDTAVYYCARSSRIYDMISSLQPYYDMDVWGQGTMVTVSS VL: QSVLTQPPSVSAAPGQKVTISCSGSSSNIGNNYVSWYQQLPGTAPKLLIYDNNKRPSGIPDRFSGSKSGTSATLGITGLQTGDEADYYCGTWDSSLSAWVFGGGTKLTVL . Reported IC50, FLIPR calcium mobilisation: 0.27
